Molecular target: recombinant human PIM2 (Homo sapiens (Human), UniProt Q9P1W9)
Sequence (Q9P1W9 whole entry): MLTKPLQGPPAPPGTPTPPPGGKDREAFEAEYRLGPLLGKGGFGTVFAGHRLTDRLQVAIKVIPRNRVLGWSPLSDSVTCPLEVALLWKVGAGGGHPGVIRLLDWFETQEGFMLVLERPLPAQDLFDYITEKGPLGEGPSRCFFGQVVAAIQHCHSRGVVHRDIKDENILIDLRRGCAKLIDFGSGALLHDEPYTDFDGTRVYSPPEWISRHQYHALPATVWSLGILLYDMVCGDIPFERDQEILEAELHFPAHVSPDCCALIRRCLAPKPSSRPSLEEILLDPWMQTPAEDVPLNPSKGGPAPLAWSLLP
Test: PIM-2 assay (33P-ATP filter binding)
Assay type: biochemical
Conditions: PIM2: IC50 (5 μM ATP), 5 μM ATP
endpoint name: IC50

Worked cases, answers included:
>  <molecular string>
CN1CCC(Nc2cc(NC3CC3)n3ncc(/C=C4\NC(=O)NC4=O)c3n2)CC1

>  <endpoint name>
IC50

>  <assay value>
1370 nM

$$$$
>  <molecular string>
CS(=O)(=O)N[C@H]1CC[C@H](Nc2cc(NC3CC3)n3ncc(/C=C4\NC(=O)NC4=O)c3n2)CC1

>  <endpoint name>
IC50

>  <assay value>
> 2500 nM

$$$$
>  <molecular string>
O=C1NC(=O)/C(=C/c2cnn3c(NC4CC4)cc(-c4cccc(NS(=O)(=O)C5CC5)c4)nc23)N1

>  <endpoint name>
IC50

>  <assay value>
> 2500 nM

$$$$

Shift focus to the following entry.
// query Consider the compound `Nc1cc(NC2CC2)n2ncc(/C=C3\NC(=O)NC3=O)c2n1` . State its measured IC50.
// result > 2500 nM

----------
Molecular target: recombinant human PIM2 (Homo sapiens (Human), UniProt Q9P1W9)
Test: PIM-2 assay (33P-ATP filter binding)
Format: biochemical
Conditions: at […] compound
endpoint name: PIM2: % inh […] (%)

Worked cases, answers included:
>  <molecular string>
CN1C(=O)NC(=Cc2cnn3c(NC4CC4)cc(Nc4ccc(C#N)c(Cl)c4)nc23)C1=O

>  <endpoint name>
PIM2: % inh […]

>  <unit string>
%

>  <assay value>
−72.498

$$$$
>  <molecular string>
CN(C)CCCOc1ccc(Nc2cc(NC3CC3)n3ncc(C=C4NC(=O)NC4=O)c3n2)cc1Cl

>  <endpoint name>
PIM2: % inh […]

>  <unit string>
%

>  <assay value>
44.33

$$$$
>  <molecular string>
Cc1c(Nc2ccc(C#N)cc2F)nc2c(C=C3NC(=O)NC3=O)cnn2c1NC1CC1

>  <endpoint name>
PIM2: % inh […]

>  <unit string>
%

>  <assay value>
59.266

$$$$
>  <molecular string>
Cc1c(N2CCN(c3ccccn3)CC2)nc2c(C=C3SC(=O)NC3=O)cnn2c1NC1CC1

>  <endpoint name>
PIM2: % inh […]

>  <unit string>
%

>  <assay value>
−19.761

$$$$
>  <molecular string>
O=C1NC(=O)C(=Cc2cnn3c(NC4CC4)cc(Nc4ccc(OCCN5CCOCC5)c(Cl)c4)nc23)N1

>  <endpoint name>
PIM2: % inh […]

>  <unit string>
%

>  <assay value>
48.912

$$$$
>  <molecular string>
Cc1c(N2CCN(c3ncccc3C#N)CC2)nc2c(C=C3SC(=O)NC3=O)cnn2c1NC1CC1

>  <endpoint name>
PIM2: % inh […]

>  <unit string>
%

>  <assay value>
50.998

$$$$
>  <molecular string>
Cc1c(Nc2ccc(C#N)cc2Cl)nc2c(C=C3NC(=O)NC3=O)cnn2c1NC1CC1

>  <endpoint name>
PIM2: % inh […]

>  <unit string>
%

>  <assay value>
53.934

$$$$
>  <molecular string>
Cc1c(Nc2ccc(-n3cccn3)cc2)nc2c(/C=C3\NC(=O)NC3=O)cnn2c1NC1CC1

>  <endpoint name>
PIM2: % inh […]

>  <unit string>
%

>  <assay value>
49.545

$$$$
>  <molecular string>
O=C1NC(=O)C(=Cc2cnn3c(NC4CC4)cc(Nc4ccc(OCCN5CCOCC5)cc4F)nc23)N1

>  <endpoint name>
PIM2: % inh […]

>  <unit string>
%

>  <assay value>
44.49

$$$$

P: Cc1c(Nc2cccc(Cl)c2)nc2c(C=C3NC(=O)NC3=O)cnn2c1NC1CC1
Q: Cc1c(N2CCN(c3ncccc3C#N)CC2)nc2c(C=C3NC(=O)NC3=O)cnn2c1NC1CC1
R: CN1C(=O)NC(=Cc2cnn3c(NC4CC4)cc(Nc4ccccc4F)nc23)C1=O
S: Cc1c(N2CCN(c3ccccn3)CC2)nc2c(C=C3NC(=O)NC3=O)cnn2c1NC1CC1
T: CN1C(=O)NC(=Cc2cnn3c(NC4CC4)cc(Nc4ccc(C#N)cc4)nc23)C1=O
// query Order the records, beginning with the lowest PIM2: % inh […] and ending with the highest. Show the ranking through the labels, in the order asked for.
// result T, R, S, P, Q

----------
Molecular target: recombinant human PIM2 (Homo sapiens (Human))
Test: PIM-2 assay (33P-ATP filter binding)
Type: biochemical
Conditions: 5 um ATP; read-out: PIM2: IC50 (5 um ATP)
pIC50: −log10 of the molar value.
Catalogue of compounds with associated pIC50

>  <molecular string>
O=C1NC(=O)/C(=C/c2cnn3c(NC4CC4)cc(SCc4ccccc4)nc23)N1

>  <assay value>
< 5.60

$$$$
>  <molecular string>
N#Cc1cccc(Cc2cc(NC3CC3)n3ncc(/C=C4\NC(=O)NC4=O)c3n2)c1

>  <assay value>
< 5.60

$$$$

// query Consider the compound `O=C1NC(=S)S/C1=C\c1cnn2c(NC3CC3)cc(-c3ccnc(F)c3)nc12` . State its measured pIC50.
// result 5.80

----------
System: BxPC3 human pancreatic adenocarcinoma cells
Test: Cell proliferation assay with Alamar Blue (AB), BxPC3
Format: cell-based
Conditions: Homo sapiens, BXPC-3, read-out: AB: BxPC3
pIC50: −log10 of the molar value.
endpoint name: pIC50

>  <molecular string>
CS(=O)(=O)c1cccc(-c2cc(NC3CC3)n3ncc(/C=C4\NC(=O)NC4=O)c3n2)c1

>  <pIC50>
4.88

$$$$
>  <molecular string>
O=C1NC(=O)/C(=C/c2cnn3c(NC4CC4)cc(-c4cccc(OCCCO)c4)nc23)N1

>  <pIC50>
5.10

$$$$

P: CN(C)c1ccc(-c2cc(NC3CC3)n3ncc(/C=C4\NC(=O)NC4=O)c3n2)cc1
Q: O=C1NC(=O)/C(=C/c2cnn3c(NC4CC4)cc(-c4ccc(O)cc4)nc23)N1
// query From the items above, decide which of P and Q has the lower pIC50 reading. // respond with label for picked entry
// result P

1: O=C1NC(=O)/C(=C/c2cnn3c(NC4CC4)cc(Nc4ccc(Cl)c(C(F)(F)F)c4)nc23)N1
2: CN(C)C(=O)N1CCC(Nc2cc(Nc3cccc(Cl)c3)nc3c(/C=C4\NC(=O)NC4=O)cnn23)CC1
// query Hi, I'm comparing 1 with 2 and wondering which one has the bigger number for pIC50. Any idea? // respond with label for picked entry
// result 1

----------
Biological target: recombinant human PIM2 (Homo sapiens (Human))
Experiment: PIM-2 assay (33P-ATP filter binding)
Type: biochemical
Settings: PIM2: IC50 (5 μM ATP), 5 μM ATP
pIC50: −log10 of the molar value.
endpoint name: pIC50

>  <molecule>
CC(C)CN1CCC(Nc2cc(Nc3cccc(Cl)c3)nc3c(/C=C4\NC(=O)NC4=O)cnn23)CC1

>  <system under test>
recombinant human PIM2 (Homo sapiens (Human))

>  <assay value>
5.66

$$$$
>  <molecule>
CS(=O)(=O)Nc1cccc(-c2cc(NC3CC3)n3ncc(/C=C4\NC(=O)NC4=O)c3n2)c1

>  <system under test>
recombinant human PIM2 (Homo sapiens (Human))

>  <assay value>
5.62

$$$$

A: CN(C)C1CCN(C(=O)c2cccc(Nc3cc(Nc4cccc(Cl)c4)nc4c(/C=C5\NC(=O)NC5=O)cnn34)c2)C1 (centres unmarked)
B: O=C1NC(=O)/C(=C/c2cnn3c(NCc4ccccn4)cc(Nc4cccc(Cl)c4)nc23)N1
// query From the items above, decide which of A and B has the lower pIC50 reading. // respond with label for picked entry
// result A

----------
Target: recombinant human PIM2 (Homo sapiens (Human), UniProt Q9P1W9)
Experiment: PIM-2 assay (33P-ATP filter binding)
Assay type: biochemical
Details: PIM2: IC50 (5 μM ATP), 5 μM ATP
endpoint name: IC50

Worked cases, answers included:
>  <molecular string>
COC(=O)CN1CCC(Nc2cc(Nc3cccc(Cl)c3)nc3c(/C=C4\NC(=O)NC4=O)cnn23)CC1

>  <system under test>
recombinant human PIM2 (Homo sapiens (Human), UniProt Q9P1W9)

>  <endpoint name>
IC50

>  <assay value>
2410 nM

$$$$
>  <molecular string>
CC(C)N1CCN(C(=O)c2cc(-c3cc(NC4CC4)n4ncc(/C=C5\NC(=O)NC5=O)c4n3)ccc2F)CC1

>  <system under test>
recombinant human PIM2 (Homo sapiens (Human), UniProt Q9P1W9)

>  <endpoint name>
IC50

>  <assay value>
> 2500 nM

$$$$
>  <molecular string>
CCCS(=O)(=O)Nc1cccc(-c2cc(NC3CC3)n3ncc(/C=C4\NC(=O)NC4=O)c3n2)c1

>  <system under test>
recombinant human PIM2 (Homo sapiens (Human), UniProt Q9P1W9)

>  <endpoint name>
IC50

>  <assay value>
> 2500 nM

$$$$

// query Consider the compound `O=C1NC(=O)/C(=C/c2cnn3c(NC4CC4)cc(NCCF)nc23)S1` . State its measured IC50.
// result > 2500 nM
